Below, each entry is listed with its recorded Activity.
Test system: MCF7
Test: Cytotoxicity against human MCF7 cells assessed as cellular growth at 10 uM by SRB assay
Type: functional
Only the number, expressed in %, is required.

These recorded examples may help you get a feel for the data.
- smiles_notation: "CC1(C)CC(=O)c2cc3c(N)c(C(=O)Nc4ccc(Cl)cc4)sc3nc2C1"
  target_entity: "MCF7"
  observed: 102.6
- smiles_notation: "Cc1cccc(-c2nc(-c3cccs3)no2)c1"
  target_entity: "MCF7"
  observed: 39.04
- smiles_notation: "CC1(C)CCc2cc(-c3ccn(S(=O)(=O)c4ccc(Cl)cc4)n3)ccc2O1"
  target_entity: "MCF7"
  observed: 71.27
- smiles_notation: "Cc1ccc(NC(=O)c2sc3nc(-c4cccs4)ccc3c2N)cc1C"
  target_entity: "MCF7"
  observed: 109.1
- smiles_notation: "O=c1/c(=C/c2ccc(Cl)cc2Cl)sc2nc(-c3ccccc3)nn12"
  target_entity: "MCF7"
  observed: 103.07

Proceeding to the next compound to report its Activity.
Task item: Fill blank: measured Activity of the compound Clc1ccccc1Nc1nnc(-c2ccncc2)s1 is ____.
Reply: 96.02

====

Tested on: CCRF-CEM
Experiment: Cytotoxicity against human CCRF-CEM cells assessed as cellular growth at 10 uM by SRB assay
Format: functional
Below, each entry is listed with its recorded Activity.
Only the number, expressed in %, is required.

- smiles_notation: "O=c1/c(=C/c2ccc(Cl)cc2Cl)sc2nc(-c3ccccc3)nn12"
  Activity [%]: 95.93

Task item: Fill blank: measured Activity of the compound CC1(C)CCc2cc(-c3ccn(S(=O)(=O)c4ccccc4Cl)n3)ccc2O1 is ____.
Reply: 59.83

Task item: Fill blank: measured Activity of the compound Nc1c(C(=O)Nc2ccc(Cl)c(Cl)c2)sc2nc(-c3cccs3)ccc12 is ____.
Reply: 82.99

Task item: Fill blank: measured Activity of the compound Clc1cccc(-c2nc(-c3cccs3)no2)c1 is ____.
Reply: 91.91

Task item: Fill blank: measured Activity of the compound O=C(Nc1ccc2oc(=O)ccc2c1)c1ccc(-c2ccc(Cl)c(Cl)c2)o1 is ____.
Reply: 57.99

Task item: Fill blank: measured Activity of the compound CC1(C)CC(=O)c2cc3c(N)c(C(=O)Nc4ccccc4Cl)sc3nc2C1 is ____.
Reply: 97.05

Task item: Fill blank: measured Activity of the compound COc1ccc(S(=O)(=O)n2ccc(-c3ccc4c(c3)CCC(C)(C)O4)n2)cc1 is ____.
Reply: 58.86

Task item: Fill blank: measured Activity of the compound Cc1ccc(S(=O)(=O)Oc2ccc(-c3cnc4ccccc4n3)cc2)cc1 is ____.
Reply: 96.08

Task item: Fill blank: measured Activity of the compound Nc1c(C(=O)Nc2ccccc2)sc2nc3c(cc12)C(=O)CCC3 is ____.
Reply: 16.76

Task item: Fill blank: measured Activity of the compound O=C(Nc1ccc(S(=O)(=O)Nc2nccs2)cc1)c1cccs1 is ____.
Reply: 89.52

====

Tested on: SNB-75
Assay: Cytotoxicity against human SNB75 cells assessed as cellular growth at 10 uM by SRB assay
Format: functional
Classify by measured Activity: True if it is equal to or exceeds 90%, False if it is smaller.

Consider the following illustrative entries.
- smiles_notation: "Cc1ccccc1NC(=O)c1sc2nc3c(cc2c1N)C(=O)CCC3"
  class: "False"
- smiles_notation: "Nc1c(C(=O)Nc2ccc(Cl)c(Cl)c2)sc2nc(-c3cccs3)ccc12"
  class: "False"
- smiles_notation: "COc1ccc(NC(=O)c2sc3nc4c(cc3c2N)C(=O)CCC4)cc1"
  class: "True"

Query compound follows.
Task item: Please check the record COc1ccc(Cl)cc1C(=O)Nc1nc2ccc(Cl)cc2s1 and state if its Activity is at or above 90%.
Reply: False

Reference for the values: ChEMBL document CHEMBL2202954
